Taken from paper PMC10692473.

assay: Pharmacokinetics study on beagle dogs; assay type: in vivo; details: both, beagle, dog, plasma, po, 1 mg/kg
recorded_metric: Cmax (ng/mL)
Number in ng/mL, nothing else.

Task: If you can, please state the reported Cmax value of CO[C@H]1CN(c2ccc(C(C)(C)O)nn2)CC[C@H]1NC(=O)c1[nH]c(C)c(Cl)c1Cl [Compound 28] .
Output: 3750

* * *

assay: Pharmacokinetics study on beagle dogs; format: in vivo; details: both, beagle, dog, plasma, iv, 1 mg/kg
recorded_metric: MRT inf
Please answer using a numeric value trailed by its unit.

Task: // MRT inf lookup, key: CO[C@H]1CN(c2ccc(C(C)(C)O)nn2)CC[C@H]1NC(=O)c1[nH]c(C)c(Cl)c1Cl [Compound 28]
Output: 12.3 h

* * *

Heads up, these compounds all have IC50 values measured for S. aureus Topo IV (Staphylococcus aureus).
Respond numerically; units are nM and should not be typed.

Consider the reported IC50 for these compounds:
CO[C@H]1CN(c2ccc(/C(C)=N/OC(C)(C)C(=O)O)nn2)CC[C@H]1NC(=O)c1[nH]c(C)c(Cl)c1Cl: 5710
CO[C@@H]1[C@@H](OC(N)=O)[C@@H](O)[C@H](Oc2ccc3c(O)c(NC(=O)c4ccc(O)c(CC=C(C)C)c4)c(=O)oc3c2C)OC1(C)C [novobiocin (1), novobiocin, reference compound]: 383
COC(=O)c1ccc(N2CC[C@@H](NC(=O)c3[nH]c(C)c(Cl)c3Cl)[C@@H](OC)C2)nn1: 7180
CO[C@H]1CN(c2ccc(C(=O)C(F)(F)F)nn2)CC[C@H]1NC(=O)c1[nH]c(C)c(Cl)c1Cl: 2130

Switching to the query record.
Task: Return IC50 measured with S. aureus Topo IV (Staphylococcus aureus) given this compound: CO[C@H]1CN(c2ccc(C(C)(C)O)nn2)CC[C@H]1NC(=O)c1[nH]c(C)c(Cl)c1Cl
Sequence (P0C1S7 whole entry): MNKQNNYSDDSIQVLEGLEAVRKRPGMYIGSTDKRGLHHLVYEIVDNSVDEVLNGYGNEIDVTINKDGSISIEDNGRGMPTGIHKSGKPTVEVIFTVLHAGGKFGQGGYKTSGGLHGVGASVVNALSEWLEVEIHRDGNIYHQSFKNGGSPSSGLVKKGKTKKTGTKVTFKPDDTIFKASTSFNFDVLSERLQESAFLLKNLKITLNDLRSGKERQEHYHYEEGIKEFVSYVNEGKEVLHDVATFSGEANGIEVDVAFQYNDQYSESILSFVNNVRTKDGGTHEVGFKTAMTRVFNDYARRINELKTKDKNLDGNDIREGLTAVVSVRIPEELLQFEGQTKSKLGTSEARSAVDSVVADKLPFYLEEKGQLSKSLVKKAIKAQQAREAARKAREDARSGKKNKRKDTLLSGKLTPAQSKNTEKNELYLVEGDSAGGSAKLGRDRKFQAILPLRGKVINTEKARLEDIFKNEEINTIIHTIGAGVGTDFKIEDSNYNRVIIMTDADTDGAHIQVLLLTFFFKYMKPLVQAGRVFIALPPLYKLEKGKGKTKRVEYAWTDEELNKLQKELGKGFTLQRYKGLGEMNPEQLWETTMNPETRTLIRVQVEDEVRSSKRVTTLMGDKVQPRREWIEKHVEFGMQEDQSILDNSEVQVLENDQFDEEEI
Sequence (P0C1U9 whole entry partner): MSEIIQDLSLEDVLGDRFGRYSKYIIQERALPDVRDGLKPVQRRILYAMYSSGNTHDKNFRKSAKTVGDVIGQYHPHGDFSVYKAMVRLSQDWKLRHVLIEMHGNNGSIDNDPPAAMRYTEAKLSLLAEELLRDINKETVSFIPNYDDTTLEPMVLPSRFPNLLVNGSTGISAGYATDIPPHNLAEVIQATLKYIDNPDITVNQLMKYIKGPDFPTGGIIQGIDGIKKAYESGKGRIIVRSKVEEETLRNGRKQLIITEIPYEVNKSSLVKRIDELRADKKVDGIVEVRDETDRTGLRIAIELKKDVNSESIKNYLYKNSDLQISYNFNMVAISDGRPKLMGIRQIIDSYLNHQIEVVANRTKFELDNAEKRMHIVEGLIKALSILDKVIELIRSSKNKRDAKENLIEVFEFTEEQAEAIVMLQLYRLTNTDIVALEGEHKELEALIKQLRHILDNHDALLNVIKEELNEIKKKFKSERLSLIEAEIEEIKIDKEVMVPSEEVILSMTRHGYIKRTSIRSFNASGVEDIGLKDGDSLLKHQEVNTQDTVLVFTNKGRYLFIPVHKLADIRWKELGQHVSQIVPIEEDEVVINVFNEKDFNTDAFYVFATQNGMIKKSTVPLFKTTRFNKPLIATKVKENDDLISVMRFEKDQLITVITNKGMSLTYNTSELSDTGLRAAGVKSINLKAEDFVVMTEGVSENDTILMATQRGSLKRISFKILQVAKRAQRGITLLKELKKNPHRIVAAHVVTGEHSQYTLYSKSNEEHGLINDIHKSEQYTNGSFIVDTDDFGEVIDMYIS
Output: 1510

* * *

assay: Pharmacokinetics study on beagle dogs; format: in vivo; conditions: both, beagle, dog, plasma, po, 1 mg/kg
recorded_metric: half-life
Reply with the number, then its unit.

Task: Recorded half-life of CO[C@H]1CN(c2ccc(C(C)(C)O)nn2)CC[C@H]1NC(=O)c1[nH]c(C)c(Cl)c1Cl [Compound 28] , please.
Output: 8.53 h

* * *

target: S. aureus gyrase (Staphylococcus aureus, UniProt P0A0K8)
Sequence (P0A0K8 whole entry): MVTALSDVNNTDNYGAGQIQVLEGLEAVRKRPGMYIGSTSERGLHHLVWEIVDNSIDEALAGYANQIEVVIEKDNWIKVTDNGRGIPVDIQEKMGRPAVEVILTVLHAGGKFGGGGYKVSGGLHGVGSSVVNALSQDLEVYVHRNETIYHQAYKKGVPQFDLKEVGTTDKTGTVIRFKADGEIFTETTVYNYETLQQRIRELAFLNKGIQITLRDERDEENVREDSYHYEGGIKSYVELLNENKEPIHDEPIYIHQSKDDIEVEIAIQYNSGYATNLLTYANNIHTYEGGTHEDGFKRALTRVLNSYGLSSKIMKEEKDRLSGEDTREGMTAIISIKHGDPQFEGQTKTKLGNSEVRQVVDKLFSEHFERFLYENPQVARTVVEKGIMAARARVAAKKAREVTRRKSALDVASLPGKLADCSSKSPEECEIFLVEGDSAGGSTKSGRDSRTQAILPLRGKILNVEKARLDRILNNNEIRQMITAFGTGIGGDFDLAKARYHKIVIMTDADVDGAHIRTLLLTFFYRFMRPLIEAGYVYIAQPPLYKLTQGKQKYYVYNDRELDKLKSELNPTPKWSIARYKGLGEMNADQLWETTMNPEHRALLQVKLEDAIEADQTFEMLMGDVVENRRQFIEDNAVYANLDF
Sequence (P20831 whole entry partner): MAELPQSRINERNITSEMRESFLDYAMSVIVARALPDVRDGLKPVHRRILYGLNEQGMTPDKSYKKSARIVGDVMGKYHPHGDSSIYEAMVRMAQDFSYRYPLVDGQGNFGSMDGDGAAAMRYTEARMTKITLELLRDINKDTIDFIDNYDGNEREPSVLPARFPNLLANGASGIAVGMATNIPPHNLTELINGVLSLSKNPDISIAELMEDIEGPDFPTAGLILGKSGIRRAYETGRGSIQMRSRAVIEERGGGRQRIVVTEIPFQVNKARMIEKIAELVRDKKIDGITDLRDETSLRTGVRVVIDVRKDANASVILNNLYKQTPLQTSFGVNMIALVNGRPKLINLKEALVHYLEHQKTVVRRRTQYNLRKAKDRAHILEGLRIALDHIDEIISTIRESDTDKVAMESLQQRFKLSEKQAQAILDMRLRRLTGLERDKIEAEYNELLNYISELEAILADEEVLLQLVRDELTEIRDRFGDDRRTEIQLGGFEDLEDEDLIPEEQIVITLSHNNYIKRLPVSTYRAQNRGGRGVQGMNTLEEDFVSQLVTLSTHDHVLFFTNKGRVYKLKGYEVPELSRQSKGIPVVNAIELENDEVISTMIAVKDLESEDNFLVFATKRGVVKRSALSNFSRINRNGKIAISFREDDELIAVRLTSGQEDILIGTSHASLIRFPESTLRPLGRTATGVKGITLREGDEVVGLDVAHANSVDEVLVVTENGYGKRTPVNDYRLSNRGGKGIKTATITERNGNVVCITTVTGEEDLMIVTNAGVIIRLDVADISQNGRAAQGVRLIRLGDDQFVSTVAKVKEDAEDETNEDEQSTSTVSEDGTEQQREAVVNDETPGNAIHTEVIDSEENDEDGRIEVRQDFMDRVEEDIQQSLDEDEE
recorded_metric: IC50

Use the examples below as a reference point.
COC(=O)c1cnc(N2CC[C@@H](NC(=O)c3[nH]c(C)c(Cl)c3Cl)[C@@H](OC)C2)cn1 [Compound 13]: > 10 µM
CO[C@H]1CN(c2ccc(-c3nn[nH]n3)nn2)CC[C@H]1NC(=O)c1[nH]c(C)c(Cl)c1Cl [Compound 36]: > 10 µM

Below: the item to evaluate.
Task: Request - read-out IC50 | tested on S. aureus gyrase (Staphylococcus aureus, UniProt P0A0K8) | compound CO[C@H]1CN(c2ccc(CN)nn2)CC[C@H]1NC(=O)c1[nH]c(C)c(Cl)c1Cl [Compound 34]
Output: > 10 µM
